- test details: E. coli acrAB mutant growth effects, primary screen, E. coli filamentation inducers, strain DRC39, OD650, 48 h (AID 1179);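 further: screen aims at cell division blockers that make cells filament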
- study conditions: E. coli DRC39 delta-acrAB growth, higher = more signal, called active from +8 up or from −8 down
Each entry below lists one item and its recorded z-score value.
When you answer, write just the number.

Task item: Fill in the blank: the reported z-score of O=C(NN=C1C[C@@H](O)[C@@H](O)[C@@H]2[C@@H]3C(=O)N(c4cccc(Oc5ccccc5)c4)C(=O)[C@@H]3CC[C@H]12)OCc1ccccc1 is ____.
Reply: 0.514

Task item: Quick one: CO[C@@H]1COC(=O)CC=C[C@@H](C)[C@H](OC)COC(=O)[C@H](COCc2ccccc2)NC(=O)CC=C[C@H]1C
Reply: -0.723

Task item: Also need CCc1cc2c(nc1CC)CCN(CCC(C)=NOC(C)CN1CCCc3nc(C)c(C)cc31)C2 (stereo not given) , thanks.
Reply: -1.71

Task item: // next record O=C1O[C@@H](c2ccccc2)[C@@H](c2ccccc2)N2[C@@H](c3ccccc3OCCO)[C@]3(C(=O)Nc4ccc(C#CCCO)cc43)[C@@H](C(=O)O)[C@H]12
Reply: -0.781

Task item: Thanks! And COC(=O)CC=C[C@@H](C)[C@@H](C=NO[C@H](C)c1cn([C@@H]2COC[C@H]2O)nn1)OC ?
Reply: 0.878

Task item: O=C1[C@H]2[C@H]3[C@H](O)[C@H](O)CC(=NOCc4ccccc4)[C@H]3CC[C@H]2C(=O)N1c1ccc(F)cc1F , same question.
Reply: 0.535

Task item: Let us now turn to CCOC(=O)CCN1C(=O)[C@H]2[C@H]3[C@H](O)[C@H](O)CC(=O)[C@H]3CC[C@H]2C1=O
Reply: -1.81
